Readings of LD50 for the listed compounds
Experiment: Acute toxicity, intravenous (once), ddY mice
Type: in vivo
Details: mouse, in vivo, iv, formulated per Preparation Example
Excerpt: In Table 7 are shown acute toxicity values (LD50, mg/kg) in ddY mice in the case of intravenously administering (once) each of the compounds of this invention in the form of preparations shown in the Preparation Examples shown in Table 7.
assay readout: LD50

INSERT INTO assay_data (compound, assay_readout, assay_result) VALUES
  ('COC1C(O)C(C)OC(OC2C(Oc3cccc4c(OC(=O)CCCNC(=O)C(F)(F)F)c5c(=O)oc6ccc(C)c7c(=O)oc(c34)c5c67)OC(C)C3OC(c4ccccc4)OC32)C1O (centres unmarked)', 'LD50', '≥ 40 mg/kg'),
  ('COC1C(O)C(C)OC(OC2C(Oc3cccc4c(OC(=O)CN(C)C(=O)C(F)(F)F)c5c(=O)oc6ccc(C)c7c(=O)oc(c34)c5c67)OC(C)C3OC(C)(C)OC32)C1O (centres unmarked)', 'LD50', '≥ 100 mg/kg'),
  ('COC1C(O)C(C)OC(OC2C(Oc3cccc4c(OC(=O)CCNC=O)c5c(=O)oc6ccc(C)c7c(=O)oc(c34)c5c67)OC(C)C3OC(CCc4ccccc4)OC32)C1O (centres unmarked)', 'LD50', '≥ 80 mg/kg'),
  ('CC=CC=CC(=O)Oc1c2cccc(OC3OC(C)C4OC(C)(C)OC4C3OC3OC(C)C(O)C(OC)C3O)c2c2oc(=O)c3c(C)ccc4oc(=O)c1c2c43 (centres unmarked)', 'LD50', '≥ 80 mg/kg'),
  ('COc1ccc(C(=O)Oc2c3cccc(O[C@@H]4O[C@H](C)[C@@H]5OC(C)(C)O[C@@H]5[C@H]4O[C@H]4O[C@H](C)[C@H](O)[C@H](OC)[C@H]4O)c3c3oc(=O)c4c(C)ccc5oc(=O)c2c3c54)cc1', 'LD50', '≥ 80 mg/kg');

====

Experiment: Acute toxicity, intravenous (once), ddY mice
Format: in vivo
Conditions: mouse, in vivo, iv, formulated per Preparation Example
Readings of LD50 for the listed molecules
assay readout: LD50

INSERT INTO measurements (molecule, assay_readout, assay_result) VALUES
  ('CO[C@H]1[C@@H](O)[C@@H](C)O[C@H](O[C@H]2[C@H](Oc3cccc4c(OC(=O)c5ccc(C(F)(F)F)cc5)c5c(=O)oc6ccc(C)c7c(=O)oc(c34)c5c67)O[C@H](C)[C@@H]3OC(C)(C)O[C@@H]32)[C@@H]1O', 'LD50', '≥ 80 mg/kg'),
  ('CO[C@H]1[C@@H](O)[C@@H](C)O[C@H](O[C@H]2[C@H](Oc3cccc4c(OC(=O)c5ccc([N+](=O)[O-])cc5)c5c(=O)oc6ccc(C)c7c(=O)oc(c34)c5c67)O[C@H](C)[C@@H]3OC(c4ccccc4)O[C@@H]32)[C@@H]1O (some centres unmarked)', 'LD50', '≥ 80 mg/kg');

====

Assay: Acute toxicity, intravenous (once), ddY mice
Assay type: in vivo
Conditions: mouse, in vivo, iv, formulated per Preparation Example
Readings of LD50 for the listed compounds
assay readout: LD50

INSERT INTO assay_data (compound, assay_result) VALUES
  ('COC1C(O)C(C)OC(OC2C(Oc3cccc4c(OC(=O)C5CC=CCC5)c5c(=O)oc6ccc(C)c7c(=O)oc(c34)c5c67)OC(C)C3OC(C)(C)OC32)C1O (stereo not shown)', '≥ 60 mg/kg'),
  ('COC1C(O)C(C)OC(OC2C(Oc3cccc4c(OC(=O)CCNC(=O)C(Cl)(Cl)Cl)c5c(=O)oc6ccc(C)c7c(=O)oc(c34)c5c67)OC(C)C3OC(c4cccc(Br)c4)OC32)C1O (stereo not shown)', '≥ 80 mg/kg'),
  ('COC1C(O)C(C)OC(OC2C(Oc3cccc4c(OC(=O)C(C)CNC(=O)C(F)(F)F)c5c(=O)oc6ccc(C)c7c(=O)oc(c34)c5c67)OC(C)C3OC(c4cccc(C(F)(F)F)c4)OC32)C1O (stereo not shown)', '≥ 80 mg/kg'),
  ('CCCCCCCCCC(=O)Oc1c2cccc(OC3OC(C)C4OC(C)(C)OC4C3OC3OC(C)C(O)C(OC)C3O)c2c2oc(=O)c3c(C)ccc4oc(=O)c1c2c43 (stereo not shown)', '≥ 60 mg/kg'),
  ('COC1C(O)C(C)OC(OC2C(Oc3cccc4c(OC(=O)CCC5CCCCC5)c5c(=O)oc6ccc(C)c7c(=O)oc(c34)c5c67)OC(C)C3OC(C)(C)OC32)C1O (stereo not shown)', '≥ 60 mg/kg'),
  ('COC1C(O)C(C)OC(OC2C(Oc3cccc4c(OC(=O)C(Cc5ccccc5)NC(=O)OCc5ccccc5)c5c(=O)oc6ccc(C)c7c(=O)oc(c34)c5c67)OC(C)C3OC(C)(C)OC32)C1O (stereo not shown)', '≥ 100 mg/kg'),
  ('CO[C@H]1[C@@H](O)[C@@H](C)O[C@H](O[C@H]2[C@H](Oc3cccc4c(OC(=O)COC(=O)c5ccccc5)c5c(=O)oc6ccc(C)c7c(=O)oc(c34)c5c67)O[C@H](C)[C@@H]3OC(C)(C)O[C@@H]32)[C@@H]1O', '≥ 60 mg/kg'),
  ('COC1C(O)C(C)OC(OC2C(Oc3cccc4c(OC(=O)CCNC(=O)CNC(=O)OCc5ccccc5)c5c(=O)oc6ccc(C)c7c(=O)oc(c34)c5c67)OC(C)C3OC(c4cccc(F)c4)OC32)C1O (stereo not shown)', '≥ 40 mg/kg'),
  ('COC1C(O)C(C)OC(OC2C(Oc3cccc4c(OC(=O)CCN5CCOCC5)c5c(=O)oc6ccc(C)c7c(=O)oc(c34)c5c67)OC(C)C3OC(c4ccccc4)OC32)C1O (stereo not shown)', '≥ 40 mg/kg'),
  ('COC1C(O)C(C)OC(OC2C(Oc3cccc4c(OC(=O)C(Cc5c[nH]c6ccccc56)NC(=O)OCc5ccccc5)c5c(=O)oc6ccc(C)c7c(=O)oc(c34)c5c67)OC(C)C3OC(C)(C)OC32)C1O (stereo not shown)', '≥ 100 mg/kg');

====

Assay: Acute toxicity, intravenous (once), ddY mice
Type: in vivo
Conditions: mouse, in vivo, iv, formulated per Preparation Example
Where a name gives a salt, the structure may show the parent alone.
assay readout: LD50

INSERT INTO results (compound, assay_result) VALUES
  ('COC1C(O)C(C)OC(OC2C(Oc3cccc4c(OC(=O)CCC(=O)c5ccccc5)c5c(=O)oc6ccc(C)c7c(=O)oc(c34)c5c67)OC(C)C3OC(C)(C)OC32)C1O (stereo not shown)', '≥ 60 mg/kg'),
  ('CCCC(=O)Oc1c2cccc(OC3OC(C)C4OC(c5ccco5)OC4C3OC3OC(C)C(O)C(OC)C3O)c2c2oc(=O)c3c(C)ccc4oc(=O)c1c2c43 (stereo not shown)', '≥ 60 mg/kg'),
  ('COC1C(O)C(C)OC(OC2C(Oc3cccc4c(OC(=O)CCNC(C)=O)c5c(=O)oc6ccc(C)c7c(=O)oc(c34)c5c67)OC(C)C3OC(c4cccc(C(F)(F)F)c4)OC32)C1O (stereo not shown)', '≥ 80 mg/kg'),
  ('COC1C(O)C(C)OC(OC2C(Oc3cccc4c(OC(=O)CCNC(C)=O)c5c(=O)oc6ccc(C)c7c(=O)oc(c34)c5c67)OC(C)C3OC(c4ccccc4)OC32)C1O (stereo not shown)', '≥ 40 mg/kg'),
  ('COC1C(O)C(C)OC(OC2C(Oc3cccc4c(OC(=O)CNC(=O)OCc5ccccc5)c5c(=O)oc6ccc(C)c7c(=O)oc(c34)c5c67)OC(C)C3OC(C)(C)OC32)C1O (stereo not shown)', '≥ 100 mg/kg'),
  ('COC1C(O)C(C)OC(OC2C(Oc3cccc4c(OC(=O)CCCCCNC(=O)C(F)(F)F)c5c(=O)oc6ccc(C)c7c(=O)oc(c34)c5c67)OC(C)C3OC(CC(C)=O)OC32)C1O (stereo not shown)', '≥ 180 mg/kg'),
  ('COC1C(O)C(C)OC(OC2C(Oc3cccc4c(OC(=O)CCNC(=O)CNC(=O)OCc5ccccc5)c5c(=O)oc6ccc(C)c7c(=O)oc(c34)c5c67)OC(C)C3OC(c4ccccc4)OC32)C1O (stereo not shown)', '≥ 40 mg/kg'),
  ('COC1C(O)C(C)OC(OC2C(Oc3cccc4c(OC(=O)CCNC(=O)CN)c5c(=O)oc6ccc(C)c7c(=O)oc(c34)c5c67)OC(C)C3OC(c4ccccc4)OC32)C1O (stereo not shown)', '≥ 40 mg/kg'),
  ('COC1C(O)C(C)OC(OC2C(Oc3cccc4c(OC(=O)C(NC(=O)OCc5ccccc5)C(C)C)c5c(=O)oc6ccc(C)c7c(=O)oc(c34)c5c67)OC(C)C3OC(c4ccccc4Cl)OC32)C1O (stereo not shown)', '≥ 80 mg/kg'),
  ('COC1C(O)C(C)OC(OC2C(Oc3cccc4c(OC(=O)CCCl)c5c(=O)oc6ccc(C)c7c(=O)oc(c34)c5c67)OC(C)C3OC(c4ccccc4)OC32)C1O (stereo not shown)', '≥ 40 mg/kg'),
  ('COC1C(O)C(C)OC(OC2C(Oc3cccc4c(OC(=O)C(NC(=O)CNC(=O)CNC(=O)OCc5ccccc5)C(C)C)c5c(=O)oc6ccc(C)c7c(=O)oc(c34)c5c67)OC(C)C3OC(c4ccccc4)OC32)C1O (stereo not shown)', '≥ 40 mg/kg'),
  ('COC1C(O)C(C)OC(OC2C(Oc3cccc4c(OC(=O)COC(=O)CCCl)c5c(=O)oc6ccc(C)c7c(=O)oc(c34)c5c67)OC(C)C3OC(c4ccccc4)OC32)C1O (stereo not shown)', '≥ 40 mg/kg'),
  ('CO[C@H]1[C@@H](O)[C@@H](C)O[C@H](O[C@H]2[C@H](Oc3cccc4c(OC(=O)c5ccc(Cl)cc5Cl)c5c(=O)oc6ccc(C)c7c(=O)oc(c34)c5c67)O[C@H](C)[C@@H]3OC(C)(C)O[C@@H]32)[C@@H]1O', '≥ 80 mg/kg'),
  ('COC1C(O)C(C)OC(OC2C(Oc3cccc4c(OC(=O)CC[N+](=O)[O-])c5c(=O)oc6ccc(C)c7c(=O)oc(c34)c5c67)OC(C)C3OC(c4ccccc4)OC32)C1O (stereo not shown)', '≥ 30 mg/kg'),
  ('COC1C(O)C(C)OC(OC2C(Oc3cccc4c(OC(=O)CNC(=O)CNC(=O)CN)c5c(=O)oc6ccc(C)c7c(=O)oc(c34)c5c67)OC(C)C3OC(c4ccccc4)OC32)C1O (stereo not shown)', '≥ 40 mg/kg'),
  ('CCN(CC)CCC(=O)Oc1c2cccc(OC3OC(C)C4OC(c5cccc(F)c5)OC4C3OC3OC(C)C(O)C(OC)C3O)c2c2oc(=O)c3c(C)ccc4oc(=O)c1c2c43 (stereo not shown) [Compound No. 15, hydrochloride]', '≥ 30 mg/kg'),
  ('COC1C(O)C(C)OC(OC2C(Oc3cccc4c(OC(=O)C(NC(=O)OCc5ccccc5)C(C)C)c5c(=O)oc6ccc(C)c7c(=O)oc(c34)c5c67)OC(C)C3OC(C)(C)OC32)C1O (stereo not shown)', '≥ 100 mg/kg'),
  ('COC1C(O)C(C)OC(OC2C(Oc3cccc4c(OC(=O)c5ccc(Br)cc5)c5c(=O)oc6ccc(C)c7c(=O)oc(c34)c5c67)OC(C)C3OC(c4ccccc4)OC32)C1O (stereo not shown)', '≥ 80 mg/kg'),
  ('COC1C(O)C(C)OC(OC2C(Oc3cccc4c(OC(=O)C5CC5)c5c(=O)oc6ccc(C)c7c(=O)oc(c34)c5c67)OC(C)C3OC(CCc4ccccc4)OC32)C1O (stereo not shown)', '≥ 60 mg/kg');
